# TARGET_UNDER_TEST: full-length RORγt in Jurkat cells (Homo sapiens (Human))
# Sequence (P51449 other isoform, or with tags, fused parts or gaps): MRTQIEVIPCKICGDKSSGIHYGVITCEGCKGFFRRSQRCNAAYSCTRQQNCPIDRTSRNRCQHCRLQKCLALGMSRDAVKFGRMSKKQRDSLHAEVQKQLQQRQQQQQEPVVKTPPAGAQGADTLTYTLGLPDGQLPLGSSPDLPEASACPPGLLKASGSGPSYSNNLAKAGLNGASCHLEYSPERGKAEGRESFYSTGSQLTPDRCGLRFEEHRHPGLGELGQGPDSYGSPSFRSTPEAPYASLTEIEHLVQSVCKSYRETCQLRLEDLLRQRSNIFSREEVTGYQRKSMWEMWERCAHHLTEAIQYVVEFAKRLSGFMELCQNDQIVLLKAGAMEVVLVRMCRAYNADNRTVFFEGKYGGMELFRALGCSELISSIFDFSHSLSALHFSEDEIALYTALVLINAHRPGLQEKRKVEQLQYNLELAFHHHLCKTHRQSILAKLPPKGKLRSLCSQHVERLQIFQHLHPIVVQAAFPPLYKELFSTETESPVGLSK
# TEST_DETAILS: RORγt 5xRORE Assay in Jurkat Cells (Assay 2)
# Type: cell-based
# MEASUREMENT_CONTEXT: Nanoluc luciferase reporter, 16-18 hrs, Table 9, read-out: RORγt5X IC50 Range*
Recorded IC50, one value per entry.

                                   compound          result
0  CC(C)[C@H]1c2nc(NC(=O)Cc3ccc(S(C)(=O)=O)cc3)sc2CN1Cc1ccc(-c2nnnn2C)cc1        < 100 nM
1  CC[C@H]1c2nc(NC(=O)Cc3ccc(F)cc3)sc2CN1Cc1ccc(Cl)cc1  100 to 1000 nM
2  CCS(=O)(=O)c1ccc(CC(=O)Nc2nc3c(s2)CN(C[C@H]2CC[C@@H](C(F)(F)F)OC2)[C@H]3C(C)C)nc1 (single isomer, unassigned)  100 to 1000 nM
3  CCS(=O)(=O)c1ccc(CC(=O)Nc2nc3c(s2)CN(Cc2cccc(F)c2)[C@@H]3C(C)C)cc1       > 1000 nM
4  CC(C)[C@H]1c2nc(NC(=O)Cc3ccc(C(C)(C)C#N)cc3)sc2CN1Cc1ccc(Cl)cc1  100 to 1000 nM

# next compound below
-- ask Please supply the value of reported IC50 for the item CCS(=O)(=O)c1ccc(CNC(=O)c2nc3c(s2)CN(Cc2ccc4c(c2)OC(F)(F)O4)[C@H]3C(C)C)nc1
-- reply < 100 nM
